The origin of these recorded values is PubChem BioAssay AID248.

test system: L1210 leukemia ip in BDF1 mice, survival T/C; experiment: NCI In Vivo Anticancer Drug Screen. Data for tumor model L1210 Leukemia (intraperitoneal) in B6D2F1 (BDF1) mice; details: endpoint: mean survival time; dose: 300.0 mg/kg/injection; schedule: Q04DX003 (ip); vehicle: Klucel (hydroxypropylcellulose) (HPC); higher = longer survival
Inconclusive results and toxic doses are left out.
Please provide measured T/C for the entries that follow.

What reported T/C corresponds to CSc1ccc(NC(=O)Sc2ccccc2C)cc1 on L1210 leukemia ip in BDF1 mice, survival T/C? 91 % of control

// lookup T/C | system=L1210 leukemia ip in BDF1 mice, survival T/C | key= O=C1NC(c2cccc3ccccc23)Nc2ccccc21 (stereo not given) 94 % of control

Lab request: please report T/C under test system L1210 leukemia ip in BDF1 mice, survival T/C for OCC1(c2ccccc2)OC1c1ccccc1 (stereo not given) 107 % of control

Can you look up T/C on L1210 leukemia ip in BDF1 mice, survival T/C for CN1CN(c2ccccc2)C2(CCN(Cc3nc4ccccc4[nH]3)CC2)C1=O ? 105 % of control

Hello, I am looking for reported T/C with L1210 leukemia ip in BDF1 mice, survival T/C for CCCCN1C(=O)c2cccnc2C1=O . Could you help? 95 % of control

###

system: L1210 leukemia ip in BDF1 mice, survival T/C; experiment: NCI In Vivo Anticancer Drug Screen. Data for tumor model L1210 Leukemia (intraperitoneal) in B6D2F1 (BDF1) mice; conditions: endpoint: mean survival time; dose: 400.0 mg/kg/injection; schedule: Q01DX009 (ip); vehicle: saline with Tween-80; higher = longer survival
Inconclusive results and toxic doses are left out.
Exercise: state measured T/C for each of the molecules provided.

What T/C value was documented for this molecule, O=c1c2c(O)cccc2oc2cccc(O)c12 ? 96 % of control

What value of T/C has been reported for the following molecule? C=CCNC(=O)Oc1cccc(NC(=O)CC)c1 87 % of control

Suppose we examine the molecule COCC(=O)C(C(C)=O)C(c1ccncc1)C(C(C)=O)C(=O)COC (stereo unspecified) ; what T/C value has been reported? 93 % of control

Requested read-out: T/C. Entry: CC1CC=CCC1COC(=O)C(=O)OCC1CC=CCC1C (stereo unspecified) 95 % of control

Fill in: T/C of OC12CCCCC13CCC1CCCCC1(O2)O3 (stereo unspecified) is ___ 102 % of control

Which value of T/C has been reported for CCCC(C)(C)C(=O)Nc1cccc(OC(=O)NC(C)C)c1 in the records? 91 % of control

###

test system: L1210 leukemia ip in BDF1 mice, survival T/C; assay: NCI In Vivo Anticancer Drug Screen. Data for tumor model L1210 Leukemia (intraperitoneal) in B6D2F1 (BDF1) mice; settings: endpoint: mean survival time; dose: 100.0 mg/kg/injection; schedule: Q04DX003 (ip); vehicle: saline; higher = longer survival
Toxic doses and inconclusive results are not listed.
Readout kind: T/C

Consider the compound CCSc1ncnc2c1ncn2CN1CCOCC1 and give its measured T/C. 115 % of control

What value of T/C has been recorded for this entry: CN(C(N)=O)C1CCCC1 96 % of control

Need T/C of O=C1NC(=O)C(=O)C(=O)N1 , thanks. 97 % of control

Given the entry O=P(CCCl)(OCCCl)N1CCCCC1 (centres undefined) , report its measured T/C. 104 % of control

Consider the compound shown here: CCOC(=O)N1NC(=O)CC1(C)C What is its recorded T/C? 105 % of control

Name the reported T/C value associated with the compound CCOC1(OCC)CS(=O)(=O)C1 109 % of control

Which T/C reading was recorded for the compound NNc1ncnc2c(C3OC(CO)C(O)C3O)[nH]nc12 (centres undefined) ? 118 % of control

Quick one: T/C of C=CCON(C)c1ccccc1 ? 94 % of control

Give the measured T/C of CC1(C)CC(N)CC(C)(C)N1O . 100 % of control
